Test system: HCV 1b genotype
Test: HCV Replicon assay (HCV 1b genotype)
Assay type: cell-based
Conditions: Hepatitis C virus; HCV 1b genotype replicon; read-out: EC50
Below is a list of entries, each paired with its recorded pEC50 value.
# pEC50 is unitless: minus log10 of the molar concentration; print number only

{"columns": ["Compound", "Measured quantity", "Readout number"],
 "data": [
  ["COC(=O)N[C@H](C(=O)N1CCC[C@H]1c1nc2ccc(-c3ccc4cc(-c5ccc6nc([C@@H]7CCCN7C(=O)[C@@H](NC(=O)OC)C(C)C)[nH]c6c5)ccc4c3)cc2[nH]1)C(C)C [Example 2]", "pEC50", 11.66]
]}

Now, please, on to the next compound.
query: I would be grateful if you could share the reported pEC50 for COC(=O)N[C@H](C(=O)N1[C@@H]2C[C@@H]2C[C@H]1c1ncc(-c2ccc(-c3ccc4nc(-c5cnc([C@@H]6C[C@H]7C[C@H]7N6C(=O)[C@@H](NC(=O)OC)C(C)C)[nH]5)cnc4c3)cc2)[nH]1)C(C)C [Example 104] .
result: 11.70
